# System: HEPG2
# test description: Euclidean distance of Cell Painting phenotypic profile (signed KS, 77 features) to DMSO centroid (dimensionless distance); 5 or 10 uM (library dependent); higher = stronger phenotypic change vs DMSO (phenoactivity)
# recorded conditions: 48 h
Where a name gives a salt, the structure may show the parent alone.
Could you label it true (1) if measured Euclidean distance is 0.8 or higher, and false (0) otherwise?

Would you say CCc1ccc(Cc2ccc3c(c2)[C@]2(OC3)O[C@H](CO)[C@@H](O)[C@H](O)[C@H]2O)cc1 shows Euclidean distance at minimum 0.8?
false (0)

Determine whether this molecule has Euclidean distance no lower than 0.8: CSc1ccc(OCc2ncc([N+](=O)[O-])n2C)cc1
true (1)

I'd appreciate it if you could say whether Cc1ccccc1-c1cc(N2CCN(C)CC2)ncc1N(C)C(=O)C(C)(C)c1cc(C(F)(F)F)cc(C(F)(F)F)c1 has Euclidean distance at least equal to 0.8.
true (1)

Assess whether reported Euclidean distance for CNC(=C[N+](=O)[O-])NCCSCc1csc(CN(C)C)n1 sits at 0.8 or higher.
true (1)

Given CSCCNc1nc(SCCC(F)(F)F)nc2c1ncn2[C@@H]1O[C@H](COP(=O)(O)OP(=O)(O)C(Cl)(Cl)P(=O)(O)O)[C@@H](O)[C@H]1O [Cangrelor Tetrasodium] , state whether its Euclidean distance is at least 0.8.
false (0)

hey, is Euclidean distance for this one >= 0.8? CCCNC(C)C(=O)Nc1ccccc1C (stereo not drawn) [Prilocaine hydrochloride]
false (0)

Entry CCOC(=O)C1=C(COCCN)NC(C)=C(C(=O)OC)[C@@H]1c1ccccc1Cl : is its Euclidean distance no less than 0.8?
true (1)

Does the reported Euclidean distance for COc1cc(OC)c(C(=O)CCCN2CCCC2)c(OC)c1 [Buflomedil HCl] fall at or above the 0.8 mark?
false (0)

Hi team, for N[C@@H](Cc1cc(I)c(Oc2ccc(O)c(I)c2)c(I)c1)C(=O)O [Triiodothyronine] , is the recorded Euclidean distance at or above 0.8?
true (1)

Entry O=C(/C=C/c1ccc(O)c(O)c1)OCCc1ccccc1 : is its Euclidean distance no less than 0.8?
true (1)

Decide: is the reported value of Euclidean distance for O=C(O)c1ccc2nc(-c3cc(Cl)cc(Cl)c3)oc2c1 equal to or greater than 0.8?
true (1)

Is Euclidean distance for CNC(=O)c1ccccc1Nc1nc(Nc2ccc(N3CCOCC3)cc2OC)ncc1Cl at or above 0.8?
true (1)

Given CC(C)(O)c1ccccc1CC[C@@H](SCC1(CC(=O)O)CC1)c1cccc(/C=C/c2ccc3ccc(Cl)cc3n2)c1 [Montelukast Sodium] , state whether its Euclidean distance is at least 0.8.
false (0)

Could you verify whether the entry C1COC(NC(C2CC2)C2CC2)=N1 [Rilmenidine Phosphate] shows Euclidean distance of no less than 0.8?
true (1)

Could you please find out whether Cc1nnc(C(=O)NC(C)(C)c2nc(C(=O)NCc3ccc(F)cc3)c(O)c(=O)n2C)o1 [Raltegravir potassium] has Euclidean distance that meets 0.8 or exceeds it?
false (0)

I'd appreciate it if you could say whether CO[C@@H]1[C@@H](O[C@@H]2O[C@H](C)[C@@H](O[C@H]3C[C@@](C)(O)[C@@H](O)[C@H](C)O3)[C@H](N(C)C)[C@H]2O)[C@@H](CC=O)C[C@@H](C)[C@@H](O[C@H]2CC[C@H](N(C)C)[C@@H](C)O2)/C=C/C=C/C[C@@H](C)OC(=O)C[C@H]1OC(C)=O has Euclidean distance at least equal to 0.8.
true (1)

Decide: is the reported value of Euclidean distance for N[C@H]1C[C@@H]1c1ccc(-c2cccc(O)c2)cc1 equal to or greater than 0.8?
false (0)

Test whether the molecule COc1ccccc1OCC(O)CO (stereo not drawn) records Euclidean distance of 0.8 or higher.
true (1)

Tell me whether Euclidean distance is at least 0.8 here: Cc1nccn1CCC(C(N)=O)(c1ccccc1)c1ccccc1
false (0)

# bool: Euclidean distance of CC[C@H]1OC(=O)C[C@@H](O)[C@H](C)[C@@H](O[C@@H]2O[C@H](C)[C@@H](O)[C@H](N(C)C)[C@H]2O)[C@@H](CCN2C[C@H](C)C[C@H](C)C2)C[C@@H](C)C(=O)/C=C/C(C)=C/[C@@H]1CO[C@@H]1O[C@H](C)[C@@H](O)[C@@H](OC)[C@H]1OC >= 0.8
true (1)

Is the recorded value of Euclidean distance equal to or greater than 0.8 for this molecule? CCN1CCCC1CNC(=O)c1cc(S(N)(=O)=O)ccc1OC (stereo not drawn) [Sulpiride]
true (1)

API: above_or_equal(metric=Euclidean distance, cutoff=0.8) for item CN(C)c1ccc2c(c1)Sc1cc(N(C)C)ccc1N2 [TRx0237 (LMTX) mesylate]
true (1)

Entry COC(=O)N/N=C/c1c[n+]([O-])c2ccccc2[n+]1[O-] : is its Euclidean distance no less than 0.8?
true (1)

###

# Test system: 786-O
# test description: Euclidean distance of Cell Painting phenotypic profile (signed KS, 77 features) to DMSO centroid (dimensionless distance); 5 or 10 uM (library dependent); higher = stronger phenotypic change vs DMSO (phenoactivity)
# recorded conditions: 48 h
Counter-ions that a name gives are not always drawn.
measured property: Euclidean distance
Write no unit; give the number alone.

Would you kindly share the measured Euclidean distance for O=C(O)C1=CO[C@@H](O[C@@H]2O[C@H](CO)[C@@H](O)[C@H](O)[C@H]2O)[C@@H]2C(CO)=CC[C@H]12 ?
0.817

Which Euclidean distance is listed for Nc1cc(C(F)(F)F)c(-c2nc(N3CCOCC3)nc(N3CCOCC3)n2)cn1 ?
2.95

Reported Euclidean distance for O=C1CN(/N=C/c2ccc(-c3ccc([N+](=O)[O-])cc3)o2)C(=O)N1 [Dantrolene sodium hemiheptahydrate] : what is it?
0.731

What value of Euclidean distance has been reported for the following molecule? Nc1ccc(S(=O)(=O)Nc2ncccn2)cc1 [Sodium sulfadiazine]
1.29

Requested field: Euclidean distance. Item: CC1(C)Cc2c(sc(NC(=O)c3ccn[nH]3)c2C(N)=O)C(C)(C)O1
0.808

Give the measured Euclidean distance of NC1=N[C@@]2(c3cc(NC(=O)c4ccc(F)cn4)ccc3F)COC[C@H]2CS1 .
1.08

Find the recorded Euclidean distance belonging to N[C@H]1C(O)O[C@H](CO)[C@@H](O)[C@@H]1O (some centres not stated) and report it.
0.508

Query: Euclidean distance; subject: NC(=O)N1CCC(CC(=O)N2CCC([C@H]3c4ncc(Br)cc4CCc4cc(Cl)cc(Br)c43)CC2)CC1
2.24

Reported Euclidean distance, molecule CN(C)c1cc(NC(=O)CNC(C)(C)C)c(O)c2c1C[C@H]1C[C@H]3[C@H](N(C)C)C(O)=C(C(N)=O)C(=O)[C@@]3(O)C(O)=C1C2=O : ____
1.81

Give its Euclidean distance value. Item: CN(C)CCCN1c2ccccc2Sc2ccc(C(F)(F)F)cc21 [Triflupromazine hydrochloride]
1.77

I would be grateful if you could share the reported Euclidean distance for Cc1cc(C)c2c(c1)[C@@H](N(Cc1cc(C(F)(F)F)cc(C(F)(F)F)c1)c1nnn(C)n1)CCCN2C[C@H]1CC[C@H](C(=O)O)CC1 .
1.71

Can you look up the measured Euclidean distance of CCC(Cc1c(I)cc(I)c(N)c1I)C(=O)O (configuration not stated) for me?
0.512

###

# Test system: HEPG2
# test description: Euclidean distance of Cell Painting phenotypic profile (signed KS, 77 features) to DMSO centroid (dimensionless distance); 5 or 10 uM (library dependent); higher = stronger phenotypic change vs DMSO (phenoactivity)
# recorded conditions: 48 h
Structures can show the parent of a compound that is named as a salt.
measured property: Euclidean distance
Please give only the number in your answer, with no unit.

Entry C=C1CC[C@H]2C(=C)CC[C@H]3C(=C)C(=O)O[C@@H]3[C@@H]12 [Dehydrocostus Lactone] has what Euclidean distance?
3.68

Item Cc1ccc(Nc2nccc(N(C)c3ccc4c(C)n(C)nc4c3)n2)cc1S(N)(=O)=O [Pazopanib] has what recorded Euclidean distance?
1.94

Param item = O=C(O)c1ccccc1 [Benzoic Acid] ; retrieve measured Euclidean distance.
1.6

Recorded Euclidean distance for O=C(Nc1ccccc1Br)N[C@@H]1CCN(c2ccc(C(F)(F)F)cn2)C1 , please?
0.544

// Euclidean distance lookup, key: Nc1nc(O)c2ncn(CCC(CO)CO)c2n1 [Penciclovir]
0.404

// Euclidean distance lookup, key: CCOc1cc2ncc(C#N)c(Nc3ccc(F)c(Cl)c3)c2cc1NC(=O)/C=C/CN(C)C [Pelitinib (EKB-569)]
2.63

Give its Euclidean distance value. Item: N[C@@]1(C(=O)O)CS(=O)(=O)[C@H]2[C@H](C(=O)O)[C@H]21
0.743

Request the reported Euclidean distance associated with c1cncc(CN2CCC(n3ncc4c(N5CCOCC5)nc(-c5ccc6[nH]ccc6c5)nc43)CC2)c1
3.78

Please give the measured Euclidean distance for this compound: CCCCCOC(=O)Nc1nc(=O)n([C@@H]2O[C@H](C)[C@@H](O)[C@H]2O)cc1F [Capecitabine]
0.821

Recorded Euclidean distance of N#Cc1ccc(C(c2ccc(C#N)cc2)n2cncn2)cc1 [Letrozole] , please.
1.48

What value of Euclidean distance has been recorded for this entry: CN(Cc1cnc2nc(N)nc(N)c2n1)c1ccc(C(=O)N[C@@H](CCC(=O)O)C(=O)O)cc1 [Methotrexate disodium]
1.47

What measured Euclidean distance goes with N[C@@H](C(=O)N[C@@H]1C(=O)N2C(C(=O)O)=C(Cl)CS[C@H]12)c1ccccc1 [Cefaclor] ?
0.709

// returns reported Euclidean distance for input CN[C@@H](C)C(=O)N[C@H](C(=O)N1CCC[C@H]1C(=O)Nc1snnc1-c1ccccc1)C1CCCCC1
0.88

Consider the compound shown here: CC(C)NC(=N)NC(=N)Nc1ccc(Cl)cc1 [Proguanil] What is its recorded Euclidean distance?
0.823

Quick one: Euclidean distance for CC1(C)S[C@@H]2[C@H](NC(=O)C(c3ccccc3)S(=O)(=O)O)C(=O)N2[C@H]1C(=O)O (stereo partly drawn) [Sulbenicillin Sodium] ?
0.601

Need Euclidean distance, item O=C(CCCCCCNC(=O)c1cnc(N(c2ccccc2)c2ccccc2)nc1)NO [Ricolinostat (ACY-1215)]
2.26

Find the recorded Euclidean distance belonging to NC(=O)c1ccc(I)c([N+](=O)[O-])c1 [Iniparib (BSI-201)] and report it.
0.803

What value of Euclidean distance has been reported for the following compound? Nc1c(CC(=O)O)cccc1C(=O)c1ccc(Br)cc1 [Bromfenac Sodium]
0.3

I would be grateful if you could share the reported Euclidean distance for O=c1ccn([C@@H]2O[C@H](COP(=O)(O)OP(=O)(O)OP(=O)(O)O)[C@@H](O)[C@H]2O)c(=O)[nH]1 [UTP. Trisodium Salt] .
1.23

Which Euclidean distance is reported for this compound? O=C(O)c1ccccc1OP(=O)(O)O [Fosfosal]
0.711

Sample CC(C)C[C@H](NC(=O)[C@H](Cc1ccccc1)NC(=O)c1cnccn1)B(O)O [Bortezomib] — what was its Euclidean distance?
4.55

# Euclidean distance lookup, item CC1(C)[C@@H](O[C@H]2O[C@H](C(=O)O)[C@@H](O)[C@H](O)[C@H]2O[C@@H]2O[C@H](C(=O)O)[C@@H](O)[C@H](O)[C@H]2O)CC[C@]2(C)[C@H]3C(=O)C=C4[C@@H]5C[C@@](C)(C(=O)O)CC[C@]5(C)CC[C@@]4(C)[C@]3(C)CC[C@@H]12 [Glycyrrhizin (Glycyrrhizic Acid)]
0.607

Value lookup for Euclidean distance; key = COc1cc(NC(=O)c2ccccn2)ccc1Cl
0.638

Item under review: O=C(O)Cc1ccc(-c2ccccc2)cc1 [4-Biphenylacetic acid] . Reported Euclidean distance?
0.638

Give the measured Euclidean distance of C[C@]12CCC(=O)C=C1CC[C@@H]1[C@@H]2[C@@H](O)C[C@@]2(C)[C@H]1CC[C@]2(O)C(=O)CO [Hydrocortisone] .
0.62

What value of Euclidean distance has been reported for the following compound? O=C(c1ccccc1)c1ccc2n1CCC2C(=O)O (stereo not drawn) [Ketorolac tromethamine salt]
0.47

Name the recorded Euclidean distance for CNCC[C@@H](Oc1ccccc1C)c1ccccc1 [Atomoxetine HCl] .
0.422

Which value of Euclidean distance has been reported for CC(C)/N=c1\cc2n(-c3ccc(Cl)cc3)c3ccccc3nc-2cc1Nc1ccc(Cl)cc1 [Clofazimine] in the records?
0.662

Where these numbers come from: the supplement of paper PMC10127200
